- test: Octanol-water partition coefficient, logP of the compound
- Format: physicochemical
Listed here: items and their measured logP.
assayEndpoint: logP

COc1cc(/C=C/C(=O)CC(=O)/C=C/c2ccc(O)c(OC)c2)ccc1O [CURCUMIN] | 2.04
COc1cc(/C=C/C(=O)CC(=O)/C=C/c2ccc(OC(=O)CCCC[C@@H]3SC[C@@H]4NC(=O)N[C@@H]43)c(OC)c2)ccc1O | 0.91
